These data points were gathered from PubChem BioAssay (NCI).

Tested on: OVCAR-5 ovarian
ASSAY NOTES: NCI-60 one-dose screen, 48 h
APPLIED CONDITIONS: 10 µM unless noted
About 83,000 compounds went through this panel and 20% of them were active in at least one assay; those are over-represented in the sample as a whole. Activity calls are given as the source filed them. The calls were made as follows: active = growth percent below 10; inactive = the rest.
The categories you may choose from are active, inactive

CCOC(=O)C1=C(C(=O)c2ccc(Br)cc2)C(c2ccc(Br)cc2)NC(=S)N1 (centres undefined)
inactive

Answer briefly: the call reported for `Oc1c(CNCCNCc2cc(Cl)cc(Cc3ccccc3)c2O)cc(Cl)cc1Cc1ccccc1` in this assay.
inactive

Tell me the assay call for `CC(C)=CC/C=C(/C)[C@H]1CC[C@]2(C)[C@@H]1CC[C@@H]1[C@@]3(C)CCC(=O)NC(C)(C)[C@@H]3CC[C@]12C` please.
active

Answer briefly: the call reported for `Nc1cc(N)c(N=Nc2ccc(S(=O)(=O)O)cc2)cc1N=Nc1ccc(-c2ccc(N=Nc3ccc(O)c(C(=O)O)c3)cc2)cc1` in this assay.
inactive

----------
Tested on: M14 melanoma
ASSAY NOTES: NCI-60 one-dose screen, 48 h
APPLIED CONDITIONS: 10 µM unless noted
Compounds without any hit were thinned out: in the full panel of roughly 83,000, 20% have a hit. The source made the active and inactive calls. Rule for the calls: active = growth percent below 10; inactive = the rest.
Your reply should match one of these outcome classes. active, inactive

Reference set (2 entries):
Cc1cc(NN=C(c2ccc(O)cc2)c2ccc(O)cc2)c([N+](=O)[O-])cc1[N+](=O)[O-]
inactive
c1coc2occoc=2o1
inactive

Test call, this compound: `O=C(Oc1ccc(Cl)cc1[N+](=O)[O-])Oc1ccc(Cl)cc1[N+](=O)[O-]`
inactive

Query: recorded result category for `[2H]C1([2H])CCN(C(=O)C2CC2)c2cc(NS(=O)(=O)c3ccc(-c4cccc(C(N)=O)c4)cc3)ccc21` in this test
inactive

For `COc1c(B(O)O)cccc1-c1nc2ccc3[nH]ncc3c2c2c1CCC2` , what call appears in the results of this test?
inactive

Fill in: this test's call for `COc1cc(NCc2ccccc2O)c2ncccc2c1` is ___
inactive

Per the records of this test, what outcome belongs to CCOC(=O)C(C(C)=O)c1nc2sc3cc(Cl)c(Cl)cc3n2c(=O)c1C#N (stereo unspecified) ?
inactive

Record request — test call for `COc1ccc(C(=O)CCC(=O)O)cc1`
inactive

Please share the test call associated with `CC(C)OC(=O)Nc1cc(F)c(F)cc1F` .
inactive

What is the recorded call for this compound in the test? `COc1ccc2nc3ccccc3c(NCCNCCO)c2c1`
active

Entry `Oc1cc(Nc2ccnc3cc(Cl)ccc23)c2ncccc2c1` : call = ?
inactive

----------
System: NCI-H460 lung
ASSAY NOTES: NCI-60 one-dose screen, 48 h (100 = growth as untreated, 0 = no growth, -100 = all killed)
APPLIED CONDITIONS: 10 µM unless noted
The panel holds about 83,000 compounds, 20% with a hit somewhere; the sample as a whole holds those more often.
growth values for the compounds below.
Answer in %, number only, no unit symbol.

CCOC(=O)C(=Cc1ccccc1[N+](=O)[O-])C(=O)OCC
49.5
O=C(NCCCCCCCNC(=O)OCc1ccc2c(Cl)cc(Cl)c(O)c2n1)OCc1ccc2c(Cl)cc(Cl)c(O)c2n1
-31.3
Cc1cccc(C[C@H](NC(=O)Nc2ccc(Cl)cc2F)C(=O)N[C@@H]2C(=O)N3C[C@H](O)C[C@H]3C(=O)N3CCCC[C@H]3C(=O)N[C@@H](C)C(=O)N3C[C@H](C)C[C@H]3C(=O)O[C@H]2C)c1
2.42
CC1=C/C(=C(\c2cc(C)c(O)c(C(=O)O)c2)c2c(Cl)cccc2Cl)C=C(C(=O)O)C1=O
104
COc1cc2c(cc1OCCCCCOc1ccc(-n3c(C)nc4ccccc4c3=O)cc1)N=C[C@@H]1CCCN1C2=O
-31.2

growth lookup needed for `Cn1cc(-c2noc(-c3cn(C)c4ncccc34)n2)c2cc(Cl)ccc21` , thanks.
88

Sample `Nc1cc(C(=O)O)[nH]c(=S)n1` — what was its growth?
105

Using the record for `CC(C)OC(=O)Nc1cc(F)ccc1F` , report its growth.
106

I would be grateful if you could share the reported growth for CCCn1ccnc1C(O)c1ccc(OCc2ccccc2)c(OC)c1 (centres undefined) .
103

What value of measured growth is listed for `O=C(NCCO)c1cccnc1` ?
98.9

----------
Here, each record is paired with measured growth data.
Tested on: SW-620 colon
ASSAY NOTES: NCI-60 one-dose screen, 48 h (100 = growth as untreated, 0 = no growth, -100 = all killed)
APPLIED CONDITIONS: 10 µM unless noted
Procedure: Growth inhibition of the SW-620 human tumor cell line is measured as a screen for anti-cancer activity. Cells are grown in 96 well plates and exposed to the test compound for 48 hours. Compounds are tested at a single concentration, which is 10^-5 M for most compounds. The reported endpoint is percent growth (GI% or GIPRCNT), where numbers from 0 - 100% represent growth inhibition, and numbers from -100% - 0 represent cell death. For example, a value of 40 represents 60% growth inhibition. […]
About 83,000 compounds went through this panel and 20% of them were active in at least one assay; those are over-represented in the sample as a whole. Activity calls are given as the source filed them. Rule for the calls: active = growth percent below 10; inactive = the rest.

C#C[C@]1(O)CC[C@H]2[C@@H]3CC=C4c5nc(Nc6ccccc6[N+](=O)[O-])sc5CC[C@]4(C)[C@H]3CC[C@@]21C
76% (inactive)
C=C(C)[C@@H]1CC[C@]2(C(=O)NCCNCCNC(=O)OC(C)(C)C)CC[C@]3(C)[C@H](CC[C@@H]4[C@@]5(C)CCC(=O)C(C)(C)[C@@H]5CC[C@]43C)[C@@H]12
28.8% [100 µM] (inactive)
Cn1cc(-c2nnc(-c3cn(C)c4ncccc34)s2)c2ccccc21
61.6% (inactive)
CCCCOC(=O)c1cccc([N+](=O)[O-])c1
103% (inactive)
CC[C@]1(O)CC2CN(CCc3c([nH]c4ccccc34)[C@@](C(=O)OC)(c3cc4c(cc3OC)N(C=O)[C@H]3[C@@](O)(C(=O)OC)[C@H](OC(C)=O)[C@]5(CC)C=CCN6CC[C@]43[C@@H]65)C2)C1 (stereo not given in full)
24% (inactive)

Quick one: growth of `O=C(CCN1CCCCC1)c1ccc2ccccc2c1` ?
107% (inactive)

Consider the compound shown here: `CNc1cc(C(=O)O)nc(NC)n1` What is its recorded growth?
98.1% (inactive)

Look up growth for this compound: CCOc1cccc2c(NC(C)CCCN(CC)CC)c(C)cnc12 (stereo not given)
96.6% (inactive)

Quick one: growth of `CCCCCCCCCCCCCCNC(=O)Nc1ccc(Cl)c(Cl)c1` ?
32.9% (inactive)

What value of growth has been reported for the following compound? `CC(=O)CC(=O)SC1=NCCS1`
97.7% (inactive)

----------
Tested on: 786-0 renal
ASSAY NOTES: NCI-60 one-dose screen, 48 h
APPLIED CONDITIONS: 10 µM unless noted
Compounds without any hit were thinned out: in the full panel of roughly 83,000, 20% have a hit. Calls of active or inactive are those of the source. How the source made its calls: active means growth percent below 10; inactive means the rest.
Parameter call: string, one of active, inactive

CCCCCn1sc(=O)n(Cc2ccc(CNC(=O)OCc3ccc4cccc(O)c4n3)cc2)c1=O
active
CC(C)=CCC[C@](C)(O)[C@H]1CC[C@]2(C)[C@@H]1CC[C@@H]1[C@@]3(C)CC/C(=N/O)C(C)(C)[C@@H]3CC[C@]12C
active
CC(C)(C)c1cc(C(=O)N2CCC(C(=O)NCCN)CC2)cc(C(C)(C)C)c1
inactive
C[C@]12CCc3c(ccc4cc(O)ccc34)[C@@H]1CC[C@H]2O
inactive
Cc1cccc(C[C@H](NC(=O)Nc2ccc(Cl)cc2F)C(=O)N[C@@H]2C(=O)N3C[C@H](OC(=O)CCN(C)C)C[C@H]3C(=O)N3CCCC[C@H]3C(=O)N[C@@H](C)C(=O)N3C[C@H](C)C[C@H]3C(=O)O[C@H]2C)c1
inactive

Entry `Cc1ccc(S(=O)(=O)NCCCNc2nccc(-c3c(-c4cccc(F)c4)nc4occn34)n2)cc1` : call = ?
inactive

Field: outcome | Entry: `C=CCCCCOc1ccccc1-c1cnc(OCCCCC=C)n1C`
inactive

Recorded call for CC1Cc2c(Cl)ncnc2N(C)c2ccc(O)cc21 (stereo not drawn) ?
active

----------
Tested on: NCI-H460 lung
ASSAY NOTES: NCI-60 one-dose screen, 48 h
APPLIED CONDITIONS: 10 µM unless noted
About 83,000 compounds went through this panel and 20% of them were active in at least one assay; those are over-represented in the sample as a whole. Activity calls are given as the source filed them. Rule for the calls: active = growth percent below 10; inactive = the rest.
Give one outcome, nothing more. List: active, inactive

Identify the outcome logged in this assay for the compound shown: `CSc1nc2c(c(=O)n1C)C1(C(=O)N(Cc3ccccc3)c3ccccc31)c1c(nc(SC)n(C)c1=O)N2`
inactive

Answer briefly: the call reported for O=C1/C(=C\c2cn(CC(O)CN3CCCCC3)c3ccccc23)c2ccccc2N1c1c(Cl)cccc1Cl (centres undefined) in this assay.
active
